- System: DYRK1B
- Run conditions: concentration: 1 μM, replicates: in singlicate; n = 1;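 note: KINOMEscan kinase panel screen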
Endpoint: %Inh (%)

Compound	Data value
Cn1cc(-c2ccc3c(c2)CCN3C(=O)Cc2cc(F)cc(C(F)(F)F)c2)c2c(N)ncnc21 [GSK2635225]	0
Cc1ccc(C)c(NC(=O)Nc2ccc(C)c(-c3ccc(C(=O)Nc4ccncc4)cc3)c2)c1 [GSK1398473]	25
COC(=O)Nc1nc2cc(Oc3ccc(NC(=O)Nc4cccc(SC)c4)cc3)ccc2[nH]1.Cl [GW697999]	0
O=C(O)C(F)(F)F.O=c1[nH]ccc2nc(N[C@@H]3CCNC3)nc(Nc3cc(Cl)cc(Cl)c3)c12 [GSK2188764]	21
N#Cc1cnc2cc(-c3cnc(CNCCN4CCOCC4)s3)ccc2c1Nc1ccc(Oc2ccccc2)cc1 [GW664114]	5
CCn1cnc2c(NCc3ccccc3)ncnc21 [SKF-96418]	37
Cc1ccc(O)cc1Nc1ccnc2ccc(C(C)(C)C)cc12 [GW856805]	19
O=C(Nc1c(F)cccc1F)c1cc(C(=O)c2ccccc2F)c[nH]1 [GSK1326180]	17
Cc1cc(-c2c(-c3ccc(F)cc3)ncn2CCCN2CCOCC2)nc(N)n1 [SB-222517]	20
COc1cccc2c(-c3ccncc3)c(-c3ccc(F)cc3)nn12 [GW468513]	0
Cc1cccc(Nc2nc(N[C@H]3CCCC[C@H]3N)ncc2C(N)=O)c1.Cl [GSK986310]	37
O=C(Nc1n[nH]c2nc(-c3ccccc3O)ccc12)C1CC1 [SB-711880]	56
CN(c1ccc(NC(=O)Nc2cccc(Cl)c2)cc1)c1ccnc(N)n1.Cl [GW830707]	14
Cl.Cl.NC(CNC(=O)c1cc(Br)c(-c2ccnc3[nH]ccc23)s1)c1ccccc1 (stereo not drawn) [GSK1322949]	95
Cc1nn2c(=O)cc(N3CCO[C@H](C)C3)nc2n1Cc1cccc(Cl)c1Cl [GSK2373693]	11
Cc1ccc(O)cc1Nc1ccnc2cc(-c3ccc(CN4CCCCC4)o3)ccc12 [GW557777]	0
COC(=O)Nc1nc2ccc(Oc3ccc(NC(=O)Nc4cc(C(F)(F)F)ccc4F)cc3)cc2[nH]1.Cl [GW654607]	42
CC(C)(C)c1ccc(C(=O)Nc2cn3cc(-n4ccnc4)ccc3n2)cc1	94.8

###

- Tested on: DDR1
- Run conditions: concentration: 1 μM, replicates: in singlicate; n = 1
Reported values of %Inh for individual entries

Molecule	Unit	%Inh
CCNC(=O)/C=C/c1n[nH]c2cc(Sc3ccccc3C(=O)NC)ccc12	%	0
NCCC(NC(=O)c1cc(Br)c(-c2ccnc3[nH]ccc23)s1)c1ccccc1.O=C(O)C(F)(F)F.O=C(O)C(F)(F)F (stereo not shown) [GSK1307810]	%	0
Nc1ncc(-c2cn[nH]c2)c2scc(-c3ccc4c(c3)CCN4C(=O)Cc3ccccc3)c12 [GSK2593067]	%	98.4
Cn1cc(-c2ccc3c(c2)CCN3C(=O)Cc2cc(F)cc(C(F)(F)F)c2)c2c(N)ncnc21 [GSK2635225]	%	100

###

Reported values of %Inh for individual entries
- Tested on: PLK4
- Run conditions: concentration: 1 μM, replicates: in singlicate; n = 1
Endpoint: %Inh (%)

Compound	Endpoint	Data value
COc1ccc(C2=C(Nc3cccc(O)c3)C(=O)NC2=O)cc1 [SB-390766]	%Inh	13
Cn1cc(-c2ccc3c(c2)CCN3C(=O)Cc2cc(F)cc(C(F)(F)F)c2)c2c(N)ncnc21 [GSK2635225]	%Inh	0
COc1ccc(C)c(Nc2ccnc(Nc3ccc(-c4cnc[nH]4)cc3)n2)c1.Cl [GW784041]	%Inh	15
Cc1ccc(NC(=O)c2ccc(Cl)c(Cl)c2)cc1-c1ccc(C(=O)Nc2ccncc2)cc1 [GSK1398460]	%Inh	8
COc1cc(Nc2nccc(N3CCC(NS(=O)(=O)c4ccc(NC(C)=O)cc4)CC3)n2)cc(OC)c1OC [GSK1379825]	%Inh	27
CN(c1ccc2c(c1)nc(NCc1ccccc1)n2C)c1ccnc(Nc2ccc(CS(C)(=O)=O)cc2)n1.Cl [GW811603]	%Inh	62
Cl.Cl.NC(CNC(=O)c1cc(Br)c(-c2ccnc3[nH]ccc23)s1)c1ccccc1 (centres unmarked) [GSK1322949]	%Inh	41
O=C(Nc1n[nH]c2nc(-c3cccc(O)c3)ccc12)C1CC1 [SB-711805]	%Inh	31
